test_protocol: Analysis of blood levels of Example 4 in study mice
Assay type: in vivo
condition_details: CD-1, whole blood, ip; mouse, Example 4 30 mg/kg i.p., 90 minutes after administration, n=3, mean [range]; read-out: Blood concentration of Test Drug
observable: concentration at 90 min

[
  {
    "smi": "Cc1ccc(Oc2ncc(N3C(=O)NC(C)(C)C3=O)cn2)c2c1OCC21CC1",
    "observable": "concentration at 90 min",
    "recorded_result": "2140 ng/mL"
  }
]

* * *

test_protocol: Analysis of blood levels of Example 4 in study mice
Format: in vivo
condition_details: CD-1, whole blood, ip; mouse, Example 4 10 mg/kg i.p., 90 minutes after administration, n=3, mean [range]; read-out: Blood concentration of Test Drug
observable: concentration at 90 min (ng/mL)

[
  {
    "molecule": "Cc1ccc(Oc2ncc(N3C(=O)NC(C)(C)C3=O)cn2)c2c1OCC21CC1 [Example 4]",
    "observable": "concentration at 90 min",
    "recorded_result": 244
  }
]

* * *

target_system: human Kv3.2 channels (hKv3.2) (Homo sapiens, UniProt Q96PR1)
Construct: expressed in transfected cells
Sequence (Q96PR1 whole entry): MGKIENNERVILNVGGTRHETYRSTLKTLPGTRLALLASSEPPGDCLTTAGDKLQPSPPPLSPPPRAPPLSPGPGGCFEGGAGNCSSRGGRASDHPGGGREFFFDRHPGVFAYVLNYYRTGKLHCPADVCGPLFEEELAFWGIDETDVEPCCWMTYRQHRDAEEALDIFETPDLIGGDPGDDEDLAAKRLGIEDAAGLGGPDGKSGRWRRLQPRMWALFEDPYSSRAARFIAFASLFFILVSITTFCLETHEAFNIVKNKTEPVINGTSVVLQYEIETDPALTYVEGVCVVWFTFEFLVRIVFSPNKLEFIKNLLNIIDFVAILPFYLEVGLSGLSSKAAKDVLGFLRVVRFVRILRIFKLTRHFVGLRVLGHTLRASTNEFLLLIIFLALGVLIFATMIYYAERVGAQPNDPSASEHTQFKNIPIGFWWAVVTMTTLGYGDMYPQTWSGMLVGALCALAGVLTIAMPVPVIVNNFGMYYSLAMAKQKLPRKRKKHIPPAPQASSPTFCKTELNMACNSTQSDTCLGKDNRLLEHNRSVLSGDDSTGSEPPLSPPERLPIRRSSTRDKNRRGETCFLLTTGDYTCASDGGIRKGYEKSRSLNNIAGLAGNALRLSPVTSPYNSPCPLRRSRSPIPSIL
test_protocol: Biological Example 1: hKv3.2 whole-cell currents, IonWorks Quattro planar array electrophysiology
Format: cell-based
condition_details: hKv3.2, -15 mV voltage step; compound 1.6 μM (concentration giving ~0.3 nA current at end of pulse)
observable: Tauact mean

[
  {
    "compound": "CC[C@H]1NC(=O)N(c2cnc(Oc3ccc(C)c4c3C(C)(C)CO4)nc2)C1=O [Example 8]",
    "recorded_result": "25.0 ms"
  },
  {
    "compound": "CC[C@@]1(C)NC(=O)N(c2cnc(Oc3ccc(C)c4c3C(C)(C)CO4)nc2)C1=O [Example 2]",
    "recorded_result": "14.8 ms"
  },
  {
    "compound": "CC[C@@]1(C)NC(=O)N(c2cnc(Oc3ccc(C)c4c3C3(CC3)CO4)nc2)C1=O [Example 1]",
    "recorded_result": "21.3 ms"
  },
  {
    "compound": "Cc1ccc(Oc2ccc(N3C(=O)NC(C)(C)C3=O)cn2)c2c1OCC21CC1 [Example 10]",
    "recorded_result": "17.3 ms"
  }
]
